Measured values drawn from patent US20190274334A1 for this set.

log10 EC50 values for the compounds below.
Target: feline CaSR (f:CaSR) (Felis catus, UniProt A0ABI7YY68)
Sequence (A0ABI7YY68 entry or part of it): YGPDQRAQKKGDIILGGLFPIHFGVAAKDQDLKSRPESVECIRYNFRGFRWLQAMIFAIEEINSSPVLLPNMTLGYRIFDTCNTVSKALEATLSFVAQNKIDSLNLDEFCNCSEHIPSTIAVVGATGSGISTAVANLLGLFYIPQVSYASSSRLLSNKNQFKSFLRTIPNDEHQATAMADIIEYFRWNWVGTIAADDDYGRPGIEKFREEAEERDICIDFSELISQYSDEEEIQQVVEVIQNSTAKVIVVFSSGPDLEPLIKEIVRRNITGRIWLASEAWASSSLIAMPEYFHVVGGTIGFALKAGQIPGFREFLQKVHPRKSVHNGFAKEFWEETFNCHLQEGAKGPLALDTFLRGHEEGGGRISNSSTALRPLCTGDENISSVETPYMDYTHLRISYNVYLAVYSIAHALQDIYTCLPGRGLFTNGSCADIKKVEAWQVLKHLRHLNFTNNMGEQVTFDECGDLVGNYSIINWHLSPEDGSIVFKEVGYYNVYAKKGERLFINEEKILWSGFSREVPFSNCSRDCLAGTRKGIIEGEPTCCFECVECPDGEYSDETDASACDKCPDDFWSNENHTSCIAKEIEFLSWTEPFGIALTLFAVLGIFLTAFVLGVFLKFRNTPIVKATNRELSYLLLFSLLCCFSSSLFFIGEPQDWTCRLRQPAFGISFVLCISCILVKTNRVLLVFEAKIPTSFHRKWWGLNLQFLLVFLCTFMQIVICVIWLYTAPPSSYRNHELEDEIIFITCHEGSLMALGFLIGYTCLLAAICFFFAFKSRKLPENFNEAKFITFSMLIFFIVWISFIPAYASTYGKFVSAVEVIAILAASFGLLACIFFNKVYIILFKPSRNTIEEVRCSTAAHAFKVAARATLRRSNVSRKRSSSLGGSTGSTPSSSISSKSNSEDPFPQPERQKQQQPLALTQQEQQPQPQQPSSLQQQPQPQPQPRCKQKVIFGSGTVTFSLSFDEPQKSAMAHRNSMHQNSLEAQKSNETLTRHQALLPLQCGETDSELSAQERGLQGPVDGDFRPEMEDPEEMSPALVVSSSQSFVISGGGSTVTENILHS
Test: cell-based
Format: cell-based
Settings: agonist mode; read-out: EC50 (Agonist)
*1 amine or outer side, *2 acyl side, *3 side chain or, on linkers, in order; H or OH if unused. Where a SMILES comes first, the peptide text is derived from it. [ ]: non-standard residue; d: D form. γGlu = O=C(O)[C@H](CCC(=O)[*:2])N[*:1]; Abu = CC[C@H](N)C(=O)O
Observation type: log10 EC50 (log10 of the value in µM)

- Compound: "CC(C)[C@H](NC(=O)CC[C@H](N)C(=O)O)C(=O)NCC(=O)O [γ-Glu-Val-Gly]"
  Result number: 3.63
- Compound: "[Gd] [Gadolinium]"
  Result number: 2.47
- Compound: "C[Se]C[C@H](N)C(=O)O [Se-(Methyl)selenocysteine]"
  Result number: 3.65
- Compound: "NC(CCC(=O)NC(Cc1c[nH]c2ccccc12)C(=O)O)C(=O)O [γ-D-Glu-Trp, H-gamma-D-Glu-Trp-OH]"
  Result number: 3.62
- Compound: "[Pr] [Praseodymium]"
  Result number: 2.60
- Compound: "CC[C@H](NC(=O)CC[C@H](N)C(=O)O)C(=O)NCC(=O)O [Ophthalmic Acid] (γGlu-[Abu]-Gly-OH)"
  Result number: 3.42
- Compound: "N[C@@H](CCC(=O)N[C@@H](Cc1ccccc1)C(=O)O)C(=O)O [γ-Glu-Phe]"
  Result number: 3.37
- Compound: "O=P(O)(O)CP(=O)(O)O [Methylenediphosphonic acid]"
  Result number: 3.11
- Compound: "[Ca] [Calcium]"
  Result number: 3.21
- Compound: "N[C@@H](CCC(=O)N[C@@H](CCC(=O)N[C@@H](CCC(=O)O)C(=O)O)C(=O)O)C(=O)O [H-Glu(Glu(Glu-OH)—OH)—OH]"
  Result number: 3.37
- Compound: "[Ba] [Barium]"
  Result number: 3.07
- Compound: "CNC(C)[C@@H]1CC[C@@H](N)[C@@H](O[C@H]2[C@H](O)[C@@H](O[C@H]3OC[C@](C)(O)[C@H](NC)[C@H]3O)[C@H](N)C[C@@H]2N)O1 (stereo partly drawn) [Gentamicin, reference compound]"
  Result number: 3.00
